All figures here come from patent US20240301052A1.

# subject of test: T1, human SLC34A2 (human, UniProt O95436 1-690)
# T1 construct: whole, on cells; also called human solute carrier 34 A2; NaPi2b
# T1 sequence (looked up): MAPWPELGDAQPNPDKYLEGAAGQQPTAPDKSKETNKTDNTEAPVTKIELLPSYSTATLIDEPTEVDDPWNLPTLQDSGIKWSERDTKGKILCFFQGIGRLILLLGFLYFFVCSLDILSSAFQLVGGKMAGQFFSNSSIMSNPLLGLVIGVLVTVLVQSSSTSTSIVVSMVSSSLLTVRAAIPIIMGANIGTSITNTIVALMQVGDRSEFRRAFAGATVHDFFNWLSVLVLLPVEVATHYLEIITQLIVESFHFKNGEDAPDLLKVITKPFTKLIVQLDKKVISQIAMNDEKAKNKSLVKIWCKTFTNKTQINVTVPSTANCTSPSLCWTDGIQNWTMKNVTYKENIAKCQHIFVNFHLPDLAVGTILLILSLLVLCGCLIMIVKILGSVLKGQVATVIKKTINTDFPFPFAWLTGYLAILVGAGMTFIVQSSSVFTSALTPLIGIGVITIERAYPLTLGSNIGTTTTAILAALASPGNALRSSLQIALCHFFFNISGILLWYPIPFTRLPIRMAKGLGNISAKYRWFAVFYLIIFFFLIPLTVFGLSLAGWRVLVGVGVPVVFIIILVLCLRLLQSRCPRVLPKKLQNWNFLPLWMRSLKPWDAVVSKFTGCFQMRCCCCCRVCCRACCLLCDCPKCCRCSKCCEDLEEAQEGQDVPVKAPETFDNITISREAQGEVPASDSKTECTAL
# test method notes: FACS, OVCAR3 cells
parameter measured: pEC50
A value of pEC50 is the negative decimal logarithm of a concentration given in moles per litre.

Quick one: pEC50 of 62G10E4G8.p3.z11 hIgG1 (antibody, V domains shown, humanized hIgG1) VH: QVQLVQSGAEVKKPGASVKVSCKASGYTFPSYITHWVKQAPGQGLEWIGAIYPGNADTSYIQKFKGRVTLTADKSTSTAYMELSSLRSEDTAVYYCARGTYGTSAWFTYWGQGTLVTVSS VL: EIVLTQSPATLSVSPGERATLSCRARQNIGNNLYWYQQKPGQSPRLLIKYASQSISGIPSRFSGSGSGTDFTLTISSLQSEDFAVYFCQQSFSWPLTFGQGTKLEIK ? 8.36

Quick one: pEC50 of 91C9F1.p1.z10 hIgG1 (antibody, V domains shown, humanized hIgG1) VH: QVQLVQSGAEVVKPGSSVKVSCKTSGFFFTEYIIHWVRQSPGQGLEWIGGIIPNNDVTNYKQNFRGRATLTADKSTSTAYMELSSLRSEDTAVYYCARWRNAYYSAMDSWGQGTTVTVSS VL: DIQMTQSPSSLSTSVGDRVTITCTASQDVGTAVAWYQQKPGKSPKLLIYWASTRHTGVPERFSGSGSGTDFTLTISSLQPEDVATYFCQQYRTSPLTFGGGTKVEIK ? 8.40

Quick one: pEC50 of 30H9B8F9 VH_P1/VL hIgG1 (antibody, V domains shown, PTM-derisked chimeric, hIgG1; that P1 is the N=>S version follows from the humanized .p1 chains; also called 30H9B8F9.p1 hIgG1) VH: QVQLQQPGAELVKPGASVKMSCKTSGYTFTTNNMHWVKQTPGQGLEWIGAIYPGSGATAYNQKFKGKATLTADKSSSTAYMQLSSLTSEASAVYYCARGMYGHGAMDYWGQGTSVIVSS VL: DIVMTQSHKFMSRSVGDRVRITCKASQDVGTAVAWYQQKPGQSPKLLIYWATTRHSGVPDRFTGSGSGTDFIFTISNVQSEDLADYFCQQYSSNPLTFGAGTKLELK ? 9.43

Quick one: pEC50 of 62G10E4G8.p3.z15 hIgG1 (antibody, V domains shown, humanized hIgG1) VH: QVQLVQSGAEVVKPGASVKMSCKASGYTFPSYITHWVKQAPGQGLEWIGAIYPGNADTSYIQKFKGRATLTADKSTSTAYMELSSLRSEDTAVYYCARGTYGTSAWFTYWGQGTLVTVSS VL: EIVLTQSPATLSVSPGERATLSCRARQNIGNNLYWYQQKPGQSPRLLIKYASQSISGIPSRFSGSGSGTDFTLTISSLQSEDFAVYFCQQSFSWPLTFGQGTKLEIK ? 8.42

Quick one: pEC50 of 63A11D5B4.p1.z15 hIgG1 (antibody, V domains shown, humanized hIgG1) VH: QVQLQQSGAEVVKPGASVKMSCKTSGYTFITYNMHWVKQAPGQGREWIGAIYPGSGDTSYNQKFKGRATLTADKSTSTAYMELSSLRSEDTAVYYCSISTIITTGAVDYWGQGTSVTVSS VL: DIQMTQSPSSLSTSVGDRVTITCKASQDVGTAVAWYQQKPGQSPKLLIYWTSTRHTGVPDRFSGSGSGTDFTLIIRSLQPEDVATYFCQQYSRIPLTFGGGTKVEIK ? 8.03

Quick one: pEC50 of 91C9F1.p1.z6 hIgG1 (antibody, V domains shown, humanized hIgG1) VH: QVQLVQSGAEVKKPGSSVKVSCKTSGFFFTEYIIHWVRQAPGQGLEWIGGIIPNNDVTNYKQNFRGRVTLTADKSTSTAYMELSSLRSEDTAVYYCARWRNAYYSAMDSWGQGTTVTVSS VL: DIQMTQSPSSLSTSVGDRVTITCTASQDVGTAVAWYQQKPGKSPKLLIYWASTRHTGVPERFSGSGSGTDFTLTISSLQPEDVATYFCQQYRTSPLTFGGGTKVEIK ? 8.54

Quick one: pEC50 of 63A11D5B4.p1.z5 hIgG1 (antibody, V domains shown, humanized hIgG1) VH: QVQLVQSGAEVKKPGASVKVSCKTSGYTFITYNMHWVRQAPGQGLEWIGAIYPGSGDTSYNQKFKGRVTMTADTSTSTVYMELSSLRSEDTAVYYCSISTIITTGAVDYWGQGTLVTVSS VL: DIQMTQSPSSLSASVGDRVTITCKASQDVGTAVAWYQQKPGKVPKLLIYWTSTRHTGVPSRFSGSGSGTDFTLTISSLQPEDVATYYCQQYSRIPLTFGGGTKVEIK ? 7.87

Quick one: pEC50 of 91C9F1.p1.z7 hIgG1 (antibody, V domains shown, humanized hIgG1) VH: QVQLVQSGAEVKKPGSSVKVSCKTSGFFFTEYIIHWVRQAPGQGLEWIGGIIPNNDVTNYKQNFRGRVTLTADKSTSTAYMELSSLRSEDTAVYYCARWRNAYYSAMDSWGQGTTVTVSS VL: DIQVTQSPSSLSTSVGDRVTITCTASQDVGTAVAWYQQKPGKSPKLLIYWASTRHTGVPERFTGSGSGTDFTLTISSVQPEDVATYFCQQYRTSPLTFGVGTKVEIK ? 8.62

Quick one: pEC50 of 63A11D5B4 VH_P1/VL hIgG1 (antibody, V domains shown, PTM-derisked chimeric, hIgG1; that P1 is the SG version follows from the humanized .p1 chains; also called 63A11D5B4.p1 hIgG1) VH: QVQLQQPGAELVKPGASVKMSCRTSGYTFITYNMHWVKQTPGQGREWIGAIYPGSGDTSYNQKFKGKATLTADKSSSTAYMQLNSLTSEDSAVYYCSISTIITTGAVDYWGQGTSVTVAS VL: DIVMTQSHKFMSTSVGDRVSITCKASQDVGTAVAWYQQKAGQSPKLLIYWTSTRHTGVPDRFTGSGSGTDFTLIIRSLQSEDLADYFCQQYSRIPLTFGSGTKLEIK ? 8.39

Quick one: pEC50 of 30H9B8F9.p1.z13 hIgG1 (antibody, V domains shown, humanized hIgG1) VH: QVQLVQSGAEVVKPGASVKMSCKTSGYTFTTNNMHWVKQAPGQGLEWIGAIYPGSGATAYNQKFKGRATLTADKSTSTAYMELSSLRSEATAVYYCARGMYGHGAMDYWGQGTSVTVSS VL: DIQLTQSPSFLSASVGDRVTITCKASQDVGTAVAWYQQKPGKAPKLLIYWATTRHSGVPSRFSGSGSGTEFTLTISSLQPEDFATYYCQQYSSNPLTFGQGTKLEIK ? 9.21

Quick one: pEC50 of 63A11D5B4.p1.z9 hIgG1 (antibody, V domains shown, humanized hIgG1) VH: QVQLVQSGAEVVKPGASVKMSCKTSGYTFITYNMHWVRQAPGQGLEWIGAIYPGSGDTSYNQKFKGRVTLTADKSTSTAYMELSSLRSEDTAVYYCSISTIITTGAVDYWGQGTLVTVSS VL: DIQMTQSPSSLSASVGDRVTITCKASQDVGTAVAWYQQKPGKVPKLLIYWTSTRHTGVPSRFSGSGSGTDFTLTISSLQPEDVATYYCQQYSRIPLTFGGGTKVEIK ? 8.04
